# System: relapsed AML cells
# Protocol Details: Drug sensitivity assay, 1,536-well, 3-day culture with individual approved drugs at 10 μM, viability by alamarBlue
# Type: cell-based, human
# Conditions Used: number of relapsed AML cases out of 18 tested with >70% cell death; 10 μM, 3-day culture
Outcome: Y for #Cases >70% cell death of at least 2; N for anything lower.

In: Dear colleague, could you confirm whether `CC(=O)[C@H]1CC[C@H]2[C@@H]3C=CC4=CC(=O)CC[C@@]4(C)[C@@H]3CC[C@]12C` has #Cases >70% cell death at or above 2?
Out: N

In: Dear colleague, could you confirm whether `COc1ccc(S(=O)(=O)N(C(C)=O)c2ccccc2/C=C/c2cc[n+]([O-])cc2)cc1` has #Cases >70% cell death at or above 2?
Out: Y

In: Dear colleague, could you confirm whether `COc1cccc2c1C(=O)c1c(O)c3c(c(O)c1C2=O)C[C@@](O)(C(=O)CO)C[C@@H]3O[C@H]1C[C@H](N)[C@H](O)[C@H](C)O1` has #Cases >70% cell death at or above 2?
Out: Y

In: Dear colleague, could you confirm whether `CC(C)C[C@H](NC(=O)CNC(=O)c1cc(Cl)ccc1Cl)B1OC(=O)C(CC(=O)O)(CC(=O)O)O1` has #Cases >70% cell death at or above 2?
Out: N

In: Dear colleague, could you confirm whether `CC(=O)[C@@]1(O)CC[C@H]2[C@@H]3C=C(Cl)C4=CC(=O)[C@@H]5C[C@@H]5[C@]4(C)[C@H]3CC[C@@]21C` has #Cases >70% cell death at or above 2?
Out: N

In: Dear colleague, could you confirm whether C=CC(N)CCC(=O)O (stereo not shown) has #Cases >70% cell death at or above 2?
Out: Y

In: Dear colleague, could you confirm whether `Nc1ccn([C@@H]2O[C@H](CO)[C@@H](O)C2(F)F)c(=O)n1` has #Cases >70% cell death at or above 2?
Out: Y

In: Dear colleague, could you confirm whether CN1CCc2c(c3ccccc3n2Cc2ccccc2)C1 [MEBHYDROLIN] has #Cases >70% cell death at or above 2?
Out: N

In: Dear colleague, could you confirm whether `Oc1c(I)cc(Cl)c2cccnc12` has #Cases >70% cell death at or above 2?
Out: Y

In: Dear colleague, could you confirm whether `CN1CCN(c2ncc(-c3cc(Cl)cc(Cl)c3Cl)c(N)n2)CC1` has #Cases >70% cell death at or above 2?
Out: N

In: Dear colleague, could you confirm whether COc1cc2c(cc1OC)-c1c/c(=N\c3c(C)cc(C)cc3C)n(C)c(=O)n1CC2.Cl [TREQUINSINçHCL] has #Cases >70% cell death at or above 2?
Out: N

In: Dear colleague, could you confirm whether `COc1ccc2c(c1)CN(C(=O)CCN1CCC(Cc3ccccc3)CC1)CCS2` has #Cases >70% cell death at or above 2?
Out: Y

* * *

Exercise: state measured #Cases >70% cell death for each of the molecules provided.
# Tested on: relapsed AML cells
# Protocol Details: Drug sensitivity assay, 1,536-well, 3-day culture with individual approved drugs at 10 μM, viability by alamarBlue
# Format: cell-based, human
# Conditions Used: number of relapsed AML cases out of 18 tested with >70% cell death; 10 μM, 3-day culture
# Description: Drug sensitivity assays were performed using a 1,536-well platform where all cells and reagents were deposited in wells using an acoustic liquid handling unit that is highly accurate for dispensing of nanoliter volumes of liquid. […] After dispensing the cells into the wells, an independent drug at a known concentration is added to each well and incubated with the cells. After three days, the percentage of live cells in each well is determined to assess the killing efficiency of each compound. […]
Where a name gives a salt, the structure may show the parent alone.
Please give the numeric answer without any surrounding text.

In: Give the reported value of #Cases >70% cell death for this record: COc1cc2ncnc(Nc3ccc(F)c(Cl)c3)c2cc1OCCCN1CCOCC1 [GEFITINIB]
Out: 2

In: Give the reported value of #Cases >70% cell death for this record: Nc1ccncc1 [4-AMINOPYRIDINE]
Out: 1

In: Give the reported value of #Cases >70% cell death for this record: N[C@@H]1CONC1=O [D-CYCLOSERINE]
Out: 1

In: Give the reported value of #Cases >70% cell death for this record: O=C(CCCCCCC(=O)Nc1ccccc1)NO [VORINOSTAT]
Out: 18

In: Give the reported value of #Cases >70% cell death for this record: Cc1c(-c2ccc(O)cc2)n(Cc2ccc(OCCN3CCCCCC3)cc2)c2ccc(O)cc12 [BAZEDOXIFENE HCL]
Out: 8

In: Give the reported value of #Cases >70% cell death for this record: CC(C)c1nc(N(C)S(C)(=O)=O)nc(-c2ccc(F)cc2)c1/C=C/[C@@H](O)C[C@@H](O)CC(=O)[O-].CC(C)c1nc(N(C)S(C)(=O)=O)nc(-c2ccc(F)cc2)c1/C=C/[C@@H](O)C[C@@H](O)CC(=O)[O-].[Ca+2] [ROSUVASTATIN CALCIUM (Crestor), ROSUVASTATIN CALCIUM]
Out: 9

In: Give the reported value of #Cases >70% cell death for this record: CCCCc1oc2ccc(NS(C)(=O)=O)cc2c1C(=O)c1ccc(OCCCN(CCCC)CCCC)cc1 [DRONEDARONE]
Out: 12

In: Give the reported value of #Cases >70% cell death for this record: CN1CCN(c2ccc3nc(-c4c(N)c5c(F)cccc5[nH]c4=O)[nH]c3c2)CC1 [GFKI-258]
Out: 16

In: Give the reported value of #Cases >70% cell death for this record: CC(C)NCC(O)COc1ccc(CC(N)=O)cc1 (stereo not drawn) [ATENOLOL]
Out: 1
